biological target: recombinant ISP1 (Mus musculus, UniProt Q924N9); construct: Myc (C); His6 (C); made in house; host or cells: Pichia pastoris SMD1168; assay: Inhibition of recombinant ISP1 by general serine proteinase inhibitors; type: biochemical; details: 2 mM BAPNA as well as 150 µM VPR-AMC as substrate; result in words
Sequence (Q924N9 31-274 limits assumed): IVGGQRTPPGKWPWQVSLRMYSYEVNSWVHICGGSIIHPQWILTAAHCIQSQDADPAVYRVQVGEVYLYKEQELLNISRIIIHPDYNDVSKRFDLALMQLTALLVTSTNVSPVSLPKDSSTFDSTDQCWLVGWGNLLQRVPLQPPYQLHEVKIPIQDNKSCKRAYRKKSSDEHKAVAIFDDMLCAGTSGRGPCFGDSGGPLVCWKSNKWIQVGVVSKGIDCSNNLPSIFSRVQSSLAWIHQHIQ
Counter-ions that a name gives are not always drawn.
Value Kind: Effect on enzyme activity of rISP1

CC(=O)N[C@@H](CC(C)C)C(=O)N[C@@H](CC(C)C)C(=O)N[C@H](C=O)CCCNC(=N)N = no noticeable effect
N=C(N)c1ccccc1 [Benzamidine Hydrochloride] = no noticeable effect

* * *

biological target: recombinant ISP1 (Mus musculus); construct: Myc (C); His6 (C); made in house; host or cells: Pichia pastoris SMD1168; assay: Inhibition of recombinant ISP1 by general serine proteinase inhibitors; format: biochemical; details: substrate VPR-AMC (0.15 mM); read-out: Ki (Apparent Ki)
Value Kind: Ki

Cc1ccc(S(=O)(=O)N[C@@H](CCCCN)C(=O)CCl)cc1 = 30 µM

Now turn to the next compound.
IN: Which Ki reading was recorded for the compound O=S(=O)(F)Cc1ccccc1 ?
OUT: 340 µM

The reported measurements were obtained from paper PMC3223204.
